Biological target: Mitogen-activated protein kinase 13 (Homo sapiens) (UniProt O15264)
Sequence (O15264 whole entry): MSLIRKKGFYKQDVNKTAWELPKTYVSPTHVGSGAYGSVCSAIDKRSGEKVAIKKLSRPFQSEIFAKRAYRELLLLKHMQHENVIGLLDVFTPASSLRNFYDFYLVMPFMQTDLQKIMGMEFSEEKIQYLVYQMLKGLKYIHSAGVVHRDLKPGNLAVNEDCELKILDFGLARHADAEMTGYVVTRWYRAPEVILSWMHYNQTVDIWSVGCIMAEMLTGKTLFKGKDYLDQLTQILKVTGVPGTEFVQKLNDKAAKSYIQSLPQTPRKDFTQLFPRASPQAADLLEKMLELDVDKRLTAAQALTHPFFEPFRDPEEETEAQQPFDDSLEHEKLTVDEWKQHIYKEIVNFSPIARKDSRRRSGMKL
Assay: Inhibition of SAPK4 (unknown origin) assessed as enzyme activity at 1 uM using 33P ATP by radioactive filter binding assay
Design: scale not given: the % may be the effect or the level left
attribute.measured: Activity (%)
Answer format: numeric, % implied, no suffix.

Answered cases to consult:
compound	Activity, %
CCc1cc(-c2c[nH]c3ncc(-c4cnn(C5CCNCC5)c4)cc23)nc(N)n1	-22
Nc1nccc(-c2c[nH]c3ncccc23)n1 [MERIOLIN 1]	-27
CCCCc1cc(-c2c[nH]c3ncccc23)nc(N)n1	-37

Let's switch to this compound now.
The reported Activity of the compound "CCCCc1cc(-c2c[nH]c3ncc(-c4cnn(C5CCNCC5)c4)cc23)nc(N)n1" was -34

====

Catalogue of Activity readings, one per entry.
Target: UniProt:P41240
Sequence (P41240 2-450 limits assumed): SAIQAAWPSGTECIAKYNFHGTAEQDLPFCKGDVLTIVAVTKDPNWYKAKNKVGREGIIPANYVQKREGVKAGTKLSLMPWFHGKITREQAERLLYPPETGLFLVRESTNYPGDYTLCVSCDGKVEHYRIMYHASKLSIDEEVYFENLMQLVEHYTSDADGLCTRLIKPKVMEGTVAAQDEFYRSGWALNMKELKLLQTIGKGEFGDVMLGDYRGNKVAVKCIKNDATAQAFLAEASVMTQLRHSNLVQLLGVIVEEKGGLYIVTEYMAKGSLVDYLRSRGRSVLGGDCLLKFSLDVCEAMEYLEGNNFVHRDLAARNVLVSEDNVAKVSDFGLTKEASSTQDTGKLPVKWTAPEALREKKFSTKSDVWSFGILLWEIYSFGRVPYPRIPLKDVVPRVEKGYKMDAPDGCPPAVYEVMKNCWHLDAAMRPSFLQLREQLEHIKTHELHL
Assay: Inhibition of human CSK (1 to 450 residues) assessed as enzyme activity at 1 uM using 33P ATP by radioactive filter binding assay
Set-up: scale not given: the % may be the effect or the level left

Hey, UniProt:P41240 data for Nc1nccc(-c2c[nH]c3ncccc23)n1 [MERIOLIN 1] : Activity came out at 0%

The reported Activity value, UniProt:P41240, for "CCCCc1cc(-c2c[nH]c3ncc(-c4cnn(C5CCNCC5)c4)cc23)nc(N)n1" reads -24%

Tested on UniProt:P41240, the item "CCCCc1cc(-c2c[nH]c3ncccc23)nc(N)n1" showed Activity equal to -5%

Query "CCc1cc(-c2c[nH]c3ncc(-c4cnn(C5CCNCC5)c4)cc23)nc(N)n1" on UniProt:P41240; Activity returned: 6%

====

Molecular target: Ribosomal protein S6 kinase alpha-3 (Homo sapiens) (UniProt P51812)
Sequence (P51812 whole entry): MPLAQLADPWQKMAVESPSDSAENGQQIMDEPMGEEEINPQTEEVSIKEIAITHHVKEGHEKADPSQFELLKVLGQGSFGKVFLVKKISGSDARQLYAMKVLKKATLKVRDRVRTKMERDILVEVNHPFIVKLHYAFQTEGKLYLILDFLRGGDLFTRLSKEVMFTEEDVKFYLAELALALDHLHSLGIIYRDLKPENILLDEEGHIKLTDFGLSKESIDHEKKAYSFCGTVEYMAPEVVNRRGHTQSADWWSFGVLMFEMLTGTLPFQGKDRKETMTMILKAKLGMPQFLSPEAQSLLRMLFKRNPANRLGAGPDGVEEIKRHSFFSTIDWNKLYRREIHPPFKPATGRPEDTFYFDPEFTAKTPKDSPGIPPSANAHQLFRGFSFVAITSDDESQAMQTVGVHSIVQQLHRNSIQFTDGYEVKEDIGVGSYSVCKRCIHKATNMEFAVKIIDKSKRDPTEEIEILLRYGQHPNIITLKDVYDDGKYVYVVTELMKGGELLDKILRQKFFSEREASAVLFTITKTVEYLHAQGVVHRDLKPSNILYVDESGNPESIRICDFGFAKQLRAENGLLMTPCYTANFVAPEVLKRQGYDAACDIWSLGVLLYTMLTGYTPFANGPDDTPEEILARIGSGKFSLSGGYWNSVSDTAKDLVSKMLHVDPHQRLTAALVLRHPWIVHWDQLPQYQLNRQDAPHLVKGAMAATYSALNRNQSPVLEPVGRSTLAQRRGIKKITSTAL
Assay: Inhibition of human MAPKAPK1beta assessed as enzyme activity at 1 uM using 33P ATP by radioactive filter binding assay
Set-up: scale not given: the % may be the effect or the level left
attribute.measured: Activity
Param answer (str): number followed by unit.

Please review the following examples before continuing.
compound	Activity
Nc1nccc(-c2c[nH]c3ncccc23)n1 [MERIOLIN 1]	-46%
CCCCc1cc(-c2c[nH]c3ncc(-c4cnn(C5CCNCC5)c4)cc23)nc(N)n1	-92%
CCCCc1cc(-c2c[nH]c3ncccc23)nc(N)n1	-17%

Could you now look at the following compound, please?
The recorded Activity for entry "CCc1cc(-c2c[nH]c3ncc(-c4cnn(C5CCNCC5)c4)cc23)nc(N)n1" equals -71%

====

Target: Serine/threonine-protein kinase PAK 4 (Homo sapiens) (UniProt O96013)
Sequence (O96013 whole entry, looked up, the tested form may be a part): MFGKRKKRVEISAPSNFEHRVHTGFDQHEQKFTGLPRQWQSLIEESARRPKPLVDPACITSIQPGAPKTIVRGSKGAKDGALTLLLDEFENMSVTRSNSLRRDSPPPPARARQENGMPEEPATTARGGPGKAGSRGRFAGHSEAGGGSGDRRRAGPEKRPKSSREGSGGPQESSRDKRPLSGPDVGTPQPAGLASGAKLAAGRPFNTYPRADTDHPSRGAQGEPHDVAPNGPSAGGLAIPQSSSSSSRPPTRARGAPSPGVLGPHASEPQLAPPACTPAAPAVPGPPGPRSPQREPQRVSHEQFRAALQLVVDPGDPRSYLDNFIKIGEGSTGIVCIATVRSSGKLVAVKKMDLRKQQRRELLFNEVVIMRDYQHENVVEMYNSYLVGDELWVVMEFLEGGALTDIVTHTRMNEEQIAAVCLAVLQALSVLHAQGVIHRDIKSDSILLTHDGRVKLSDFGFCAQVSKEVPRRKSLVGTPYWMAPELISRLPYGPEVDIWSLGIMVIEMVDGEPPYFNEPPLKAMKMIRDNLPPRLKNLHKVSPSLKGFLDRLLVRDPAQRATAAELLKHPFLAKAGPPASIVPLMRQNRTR
Assay: Inhibition of human PAK4 (2 to 591 residues) assessed as enzyme activity at 1 uM using 33P ATP by radioactive filter binding assay
Parameters: scale not given: the % may be the effect or the level left
attribute.measured: Activity (%)
# output: bare number, implied unit %

Worked cases, answers included:
CCc1cc(-c2c[nH]c3ncc(-c4cnn(C5CCNCC5)c4)cc23)nc(N)n1 -47
Nc1nccc(-c2c[nH]c3ncccc23)n1 -22
CCCCc1cc(-c2c[nH]c3ncccc23)nc(N)n1 1

The measured Activity associated with "CCCCc1cc(-c2c[nH]c3ncc(-c4cnn(C5CCNCC5)c4)cc23)nc(N)n1" reads -60

====

Molecular target: Homeodomain-interacting protein kinase 2 (Homo sapiens) (UniProt Q9H2X6)
Sequence (Q9H2X6 whole entry, looked up, the tested form may be a part): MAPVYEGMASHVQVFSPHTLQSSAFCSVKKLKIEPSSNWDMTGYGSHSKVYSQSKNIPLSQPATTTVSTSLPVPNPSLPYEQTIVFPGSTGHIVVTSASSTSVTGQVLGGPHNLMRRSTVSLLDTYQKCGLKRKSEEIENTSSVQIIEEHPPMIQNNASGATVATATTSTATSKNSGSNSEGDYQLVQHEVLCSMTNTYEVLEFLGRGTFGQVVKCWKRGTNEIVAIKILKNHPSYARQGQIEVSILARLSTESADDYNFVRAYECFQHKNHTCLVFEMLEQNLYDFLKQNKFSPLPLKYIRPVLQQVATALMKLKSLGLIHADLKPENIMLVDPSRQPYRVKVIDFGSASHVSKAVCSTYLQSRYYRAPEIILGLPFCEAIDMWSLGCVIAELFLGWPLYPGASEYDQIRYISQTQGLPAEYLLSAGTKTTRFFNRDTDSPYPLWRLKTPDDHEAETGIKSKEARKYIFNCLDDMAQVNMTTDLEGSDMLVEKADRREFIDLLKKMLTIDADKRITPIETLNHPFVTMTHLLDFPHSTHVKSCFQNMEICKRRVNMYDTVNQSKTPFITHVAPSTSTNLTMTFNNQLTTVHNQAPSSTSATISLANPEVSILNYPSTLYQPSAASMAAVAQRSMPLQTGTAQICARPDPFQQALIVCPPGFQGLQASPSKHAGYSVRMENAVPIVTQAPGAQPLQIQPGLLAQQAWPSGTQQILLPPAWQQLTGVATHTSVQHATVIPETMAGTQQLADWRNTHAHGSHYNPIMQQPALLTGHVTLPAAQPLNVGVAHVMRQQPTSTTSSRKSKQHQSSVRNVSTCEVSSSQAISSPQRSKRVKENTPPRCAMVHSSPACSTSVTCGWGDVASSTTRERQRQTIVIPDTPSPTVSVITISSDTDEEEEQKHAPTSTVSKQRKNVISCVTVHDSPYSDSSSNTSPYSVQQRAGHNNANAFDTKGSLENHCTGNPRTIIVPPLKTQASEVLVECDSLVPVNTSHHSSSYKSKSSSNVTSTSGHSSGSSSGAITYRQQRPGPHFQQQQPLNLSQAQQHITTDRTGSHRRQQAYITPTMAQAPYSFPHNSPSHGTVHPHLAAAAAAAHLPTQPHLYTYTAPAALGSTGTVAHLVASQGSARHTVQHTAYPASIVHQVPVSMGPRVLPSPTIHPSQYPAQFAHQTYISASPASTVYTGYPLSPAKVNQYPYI
Assay: Inhibition of human HIPK2 (165 to 564 residues) assessed as enzyme activity at 1 uM using 33P ATP by radioactive filter binding assay
Design: scale not given: the % may be the effect or the level left
attribute.measured: Activity
Answer as a quantity: numeral, then unit.

CCCCc1cc(-c2c[nH]c3ncccc23)nc(N)n1 -67%

Value of Activity reported for the compound "CCc1cc(-c2c[nH]c3ncc(-c4cnn(C5CCNCC5)c4)cc23)nc(N)n1" is -99%

The recorded Activity for entry "CCCCc1cc(-c2c[nH]c3ncc(-c4cnn(C5CCNCC5)c4)cc23)nc(N)n1" equals -92%

Entry under test: "Nc1nccc(-c2c[nH]c3ncccc23)n1" . Its Activity was -79%

====

Biological target: Mitogen-activated protein kinase 11 (Homo sapiens) (UniProt Q15759)
Sequence (Q15759 whole entry): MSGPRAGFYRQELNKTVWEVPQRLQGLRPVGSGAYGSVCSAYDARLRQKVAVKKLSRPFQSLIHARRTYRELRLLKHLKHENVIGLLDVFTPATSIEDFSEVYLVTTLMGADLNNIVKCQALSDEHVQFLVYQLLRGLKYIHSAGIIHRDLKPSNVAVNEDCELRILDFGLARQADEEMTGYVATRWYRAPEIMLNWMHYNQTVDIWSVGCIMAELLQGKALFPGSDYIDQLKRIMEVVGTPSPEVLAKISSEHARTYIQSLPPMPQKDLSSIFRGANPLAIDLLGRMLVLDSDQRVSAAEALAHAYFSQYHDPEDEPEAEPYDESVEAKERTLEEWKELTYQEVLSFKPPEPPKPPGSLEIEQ
Test: Inhibition of SAPK2b (unknown origin) assessed as enzyme activity at 1 uM using 33P ATP by radioactive filter binding assay
Set-up: scale not given: the % may be the effect or the level left
attribute.measured: Activity (%)
Entry rule: numbers only, all in %.

compound	Activity / %
Nc1nccc(-c2c[nH]c3ncccc23)n1 [MERIOLIN 1]	-4
CCc1cc(-c2c[nH]c3ncc(-c4cnn(C5CCNCC5)c4)cc23)nc(N)n1	-18
CCCCc1cc(-c2c[nH]c3ncccc23)nc(N)n1	-5

Data point: "CCCCc1cc(-c2c[nH]c3ncc(-c4cnn(C5CCNCC5)c4)cc23)nc(N)n1" ; Activity = -21

====

Biological target: Casein kinase I isoform delta (Homo sapiens)
Test: Inhibition of human CK1 delta (1 to 415 residues) assessed as enzyme activity at 1 uM using 33P ATP by radioactive filter binding assay
Parameters: scale not given: the % may be the effect or the level left
Recorded Activity for the following compounds
Please answer using a numeric value trailed by its unit.

Study these solved cases before continuing.
CCc1cc(-c2c[nH]c3ncc(-c4cnn(C5CCNCC5)c4)cc23)nc(N)n1 -67%
CCCCc1cc(-c2c[nH]c3ncc(-c4cnn(C5CCNCC5)c4)cc23)nc(N)n1 -72%
Nc1nccc(-c2c[nH]c3ncccc23)n1 -74%

// next entry
Value of Activity reported for the compound "CCCCc1cc(-c2c[nH]c3ncccc23)nc(N)n1" is -26%

====

Molecular target: Proto-oncogene tyrosine-protein kinase Src (Homo sapiens) (UniProt P12931)
Sequence (P12931 2-536 limits assumed): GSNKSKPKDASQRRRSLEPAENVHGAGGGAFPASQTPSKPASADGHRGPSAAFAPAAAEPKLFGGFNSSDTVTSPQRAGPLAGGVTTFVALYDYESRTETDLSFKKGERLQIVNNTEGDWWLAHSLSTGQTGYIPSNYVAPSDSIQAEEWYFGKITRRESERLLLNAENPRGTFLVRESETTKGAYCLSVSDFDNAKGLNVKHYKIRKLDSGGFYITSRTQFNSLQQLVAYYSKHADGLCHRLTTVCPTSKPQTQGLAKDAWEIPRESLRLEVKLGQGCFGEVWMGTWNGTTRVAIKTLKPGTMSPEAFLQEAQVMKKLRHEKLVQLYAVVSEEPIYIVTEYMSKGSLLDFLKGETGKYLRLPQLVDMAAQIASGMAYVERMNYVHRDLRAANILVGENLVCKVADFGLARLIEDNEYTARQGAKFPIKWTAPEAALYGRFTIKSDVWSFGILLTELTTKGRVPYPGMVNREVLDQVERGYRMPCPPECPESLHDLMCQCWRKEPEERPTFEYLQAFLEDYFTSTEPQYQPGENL
Experiment: Inhibition of human SRC (1 to 536 residues) assessed as enzyme activity at 1 uM using 33P ATP by radioactive filter binding assay
Design: scale not given: the % may be the effect or the level left
attribute.measured: Activity (%)
Please give a number only; it is taken to be in %.

Example cases with answers are listed next.
compound	Activity [%]
CCCCc1cc(-c2c[nH]c3ncc(-c4cnn(C5CCNCC5)c4)cc23)nc(N)n1	-68
CCc1cc(-c2c[nH]c3ncc(-c4cnn(C5CCNCC5)c4)cc23)nc(N)n1	-34
Nc1nccc(-c2c[nH]c3ncccc23)n1 [MERIOLIN 1]	-11

Reported Activity of "CCCCc1cc(-c2c[nH]c3ncccc23)nc(N)n1" : 7

====

Target: Fibroblast growth factor receptor 1 (Homo sapiens)
Test: Inhibition of human FGFR1 (400 to 820 residues) assessed as enzyme activity at 1 uM using 33P ATP by radioactive filter binding assay
Set-up: scale not given: the % may be the effect or the level left
attribute.measured: Activity (%)
Reply with just the number (in %).

Past entries and their recorded results:
CCCCc1cc(-c2c[nH]c3ncc(-c4cnn(C5CCNCC5)c4)cc23)nc(N)n1 -80
Nc1nccc(-c2c[nH]c3ncccc23)n1 -8
CCc1cc(-c2c[nH]c3ncc(-c4cnn(C5CCNCC5)c4)cc23)nc(N)n1 -79

# value of Activity, Fibroblast growth factor receptor 1 (Homo sapiens), item "CCCCc1cc(-c2c[nH]c3ncccc23)nc(N)n1" = 3

====

Target: Serine/threonine-protein kinase 26 (Homo sapiens) (UniProt Q9P289)
Sequence (Q9P289 2-416 limits assumed): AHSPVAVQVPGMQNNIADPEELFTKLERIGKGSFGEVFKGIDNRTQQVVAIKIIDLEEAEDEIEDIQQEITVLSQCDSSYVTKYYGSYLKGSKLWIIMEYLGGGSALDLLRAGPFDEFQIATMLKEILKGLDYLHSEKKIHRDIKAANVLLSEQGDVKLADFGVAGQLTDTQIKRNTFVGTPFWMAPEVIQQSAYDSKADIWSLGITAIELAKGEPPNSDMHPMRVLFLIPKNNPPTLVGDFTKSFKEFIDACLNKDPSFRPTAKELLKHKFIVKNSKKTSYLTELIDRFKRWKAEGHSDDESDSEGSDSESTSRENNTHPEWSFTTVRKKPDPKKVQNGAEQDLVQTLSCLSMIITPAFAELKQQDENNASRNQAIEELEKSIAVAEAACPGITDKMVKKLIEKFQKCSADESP
Test: Inhibition of human MST4 (1 to 416 residues) assessed as enzyme activity at 1 uM using 33P ATP by radioactive filter binding assay
Set-up: scale not given: the % may be the effect or the level left
attribute.measured: Activity
Give me the value, and tack the unit on after it.

Before answering, review these 3 worked examples.
CCCCc1cc(-c2c[nH]c3ncccc23)nc(N)n1 -4%
CCc1cc(-c2c[nH]c3ncc(-c4cnn(C5CCNCC5)c4)cc23)nc(N)n1 -49%
Nc1nccc(-c2c[nH]c3ncccc23)n1 -9%

Attention now shifts to the item below.
"CCCCc1cc(-c2c[nH]c3ncc(-c4cnn(C5CCNCC5)c4)cc23)nc(N)n1" has a reported Activity of -40%

====

Biological target: 3-phosphoinositide-dependent protein kinase 1 (Homo sapiens)
Sequence (O15530 whole entry): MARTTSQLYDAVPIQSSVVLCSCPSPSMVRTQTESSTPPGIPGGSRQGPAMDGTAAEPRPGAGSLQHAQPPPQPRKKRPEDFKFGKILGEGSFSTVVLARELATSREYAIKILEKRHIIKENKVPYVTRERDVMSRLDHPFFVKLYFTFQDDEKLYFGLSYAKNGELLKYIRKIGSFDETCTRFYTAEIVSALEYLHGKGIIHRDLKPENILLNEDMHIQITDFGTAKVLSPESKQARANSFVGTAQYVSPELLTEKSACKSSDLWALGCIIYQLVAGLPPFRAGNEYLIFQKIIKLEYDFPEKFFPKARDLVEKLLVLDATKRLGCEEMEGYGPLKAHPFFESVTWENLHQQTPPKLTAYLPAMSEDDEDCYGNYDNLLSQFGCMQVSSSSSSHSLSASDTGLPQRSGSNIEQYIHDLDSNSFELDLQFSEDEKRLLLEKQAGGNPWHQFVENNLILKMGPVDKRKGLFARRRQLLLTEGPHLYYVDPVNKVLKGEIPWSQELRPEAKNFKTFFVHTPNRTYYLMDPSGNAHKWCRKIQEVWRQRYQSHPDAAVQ
Test: Inhibition of human His6-tagged PDK1 using biotinylated PDKtide as substrate after 60 mins by topcount method
attribute.measured: pIC50
In simple prose, pIC50 is minus the logarithm base ten of a concentration in moles per litre.

A selection of reference data follows.
molecule	pIC50
Nc1ncc(-c2ccccc2)cc1-c1nc2ccccc2[nH]1	5.96
CCc1cc(-c2c[nH]c3ncc(-c4c(C)nn(C)c4C)cc23)nc(N)n1	5.57
Nc1nccc(-c2c[nH]c3ncccc23)n1 [MERIOLIN 1]	5.23
Nc1nc2c3ccccc3nc(-c3ccccc3)n2n1	4.22
NCCCCc1cc(-c2c[nH]c3ncccc23)nc(N)n1	6.00
CCCc1cc(-c2c[nH]c3ncccc23)nc(N)n1	5.74

Next molecule, pIC50 to be filled in.
// recorded pIC50 for "CCc1cc(-c2c[nH]c3ncc(-c4ccncc4)cc23)nc(N)n1" : 6.35
